Would you kindly list inhibition at 1 µM for each of these molecules?
- Target: human PDE4B1 (Homo sapiens)
- Construct: host or cells: Sf9 cells
- Assay: cAMP HTRF assay to determine the activity of hPDE4B1
- Type: biochemical
- Experimental parameters: Percentage inhibition of PDE4B at 1 μM test concentration
Answers are plain numbers, in %.

>  <Molecule>
CN(C)C(=O)COc1ccc2c(c1)N(c1nc(-c3ccc4occc4c3)nc3c1C[S+]([O-])C3)CC2 (centres unmarked)

>  <Reported metric>
inhibition at 1 µM

>  <Reading>
104

$$$$
>  <Molecule>
COc1ccc(-c2nc3c(c(N4CCc5cc(CC(=O)O)ccc54)n2)CCC3)cc1

>  <Reported metric>
inhibition at 1 µM

>  <Reading>
83

$$$$

Items follow; give inhibition at 1 µM for each.
1. CN(C)C(=O)COc1ccc2c(c1)N(c1nc(-c3ccc(Cl)s3)nc3c1CCC3)CC2
2. CN(C)C(=O)COc1ccc2c(c1)N(c1nc(-c3ccc4cccnc4c3)nc3c1C[S+]([O-])C3)CC2 (centres unmarked)
3. CN(C)C(=O)COc1ccc2c(c1)N(c1nc(-c3cccnc3)nc3c1CS(=O)(=O)C3)CC2

79
92
98

Items follow; give inhibition at 1 µM for each.
1. O=C(O)Cc1ccc2c(cnn2-c2nc(-c3ccc(Cl)s3)nc3c2CCC3)c1
2. CN(C)C(=O)COc1ccc2c(c1)N(c1nc(-c3ccccc3)nc3c1C[S+]([O-])C3)CC2 (centres unmarked)
3. O=C(O)c1ccc2c(ccn2-c2nc(-c3ccc(Cl)s3)nc3c2CCC3)c1

1: 82; 2: 121; 3: 61

###

Would you kindly list inhibition at 1 µM for each of these compounds?
- Target: human PDE4B1 (Homo sapiens, UniProt Q07343)
- Construct: host or cells: Sf9 cells
- Sequence (Q07343 whole entry): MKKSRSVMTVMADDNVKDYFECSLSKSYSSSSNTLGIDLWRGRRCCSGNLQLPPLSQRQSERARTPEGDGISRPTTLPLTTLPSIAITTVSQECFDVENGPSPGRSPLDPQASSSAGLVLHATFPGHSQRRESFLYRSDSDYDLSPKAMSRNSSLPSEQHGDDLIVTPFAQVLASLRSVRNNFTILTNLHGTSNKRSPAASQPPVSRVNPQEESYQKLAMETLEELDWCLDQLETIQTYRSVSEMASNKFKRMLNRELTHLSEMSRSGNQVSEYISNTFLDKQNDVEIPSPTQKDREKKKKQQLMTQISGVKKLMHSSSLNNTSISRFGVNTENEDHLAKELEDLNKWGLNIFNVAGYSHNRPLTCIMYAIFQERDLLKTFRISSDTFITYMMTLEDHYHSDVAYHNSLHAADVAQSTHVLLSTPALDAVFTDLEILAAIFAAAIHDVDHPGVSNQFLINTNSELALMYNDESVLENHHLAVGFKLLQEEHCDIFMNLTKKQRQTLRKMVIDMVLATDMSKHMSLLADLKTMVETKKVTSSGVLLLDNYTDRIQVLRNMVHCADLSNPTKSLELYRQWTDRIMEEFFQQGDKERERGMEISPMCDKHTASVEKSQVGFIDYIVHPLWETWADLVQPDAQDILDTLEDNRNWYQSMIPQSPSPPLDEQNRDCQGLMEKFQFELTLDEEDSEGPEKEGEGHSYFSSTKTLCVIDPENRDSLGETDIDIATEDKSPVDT
- Assay: cAMP HTRF assay to determine the activity of hPDE4B1
- Format: biochemical
- Experimental parameters: Percentage inhibition of PDE4B at 1 μM test concentration
Numbers only, in %.

Examples from the recorded data:
>  <Substance smiles>
CC(C)NC(=O)COc1ccc2c(c1)N(c1nc(-c3ccc(Cl)s3)nc3c1CS(=O)(=O)C3)CC2

>  <Reported metric>
inhibition at 1 µM

>  <Output unit>
%

>  <Reading>
54

$$$$
>  <Substance smiles>
O=C(COc1ccc2c(c1)N(c1nc(-c3ccc(Cl)s3)nc3c1CCC3)CC2)NC1CC1

>  <Reported metric>
inhibition at 1 µM

>  <Output unit>
%

>  <Reading>
38

$$$$
>  <Substance smiles>
COc1ccc(-c2nc3c(c(N4CCc5ccc(OCC(=O)N(C)C)cc54)n2)CS(=O)(=O)C3)cc1

>  <Reported metric>
inhibition at 1 µM

>  <Output unit>
%

>  <Reading>
88

$$$$

Query compound follows.
Supply inhibition at 1 µM measured with human PDE4B1 (Homo sapiens, UniProt Q07343) for O=C(COc1ccc2c(c1)N(c1nc(-c3ccc(Cl)s3)nc3c1CS(=O)(=O)C3)CC2)NC1COC1 . 75

###

- Target: human PDE4B1 (Homo sapiens, UniProt Q07343)
- Construct: host or cells: Sf9 cells
- Assay: cAMP HTRF assay to determine the activity of hPDE4B1
- Type: biochemical
- Experimental parameters: Percentage inhibition of PDE4B at 1 μM test concentration
- Description: cAMP HTRF® Assay to Determine the Activity of hPDE4B1 The inhibiting effect of the compounds on the enzyme activity of human PDE4B1 was measured by the quantification of 5′-adenosine monophosphate (5′-AMP), which is formed from 3′,5′-cyclic adenosine monophosphate (cAMP). Human recombinant enzyme, expressed in Sf9 cells, and the HTRF (homogeneous time-resolved fluorescence) detection method were used in the assay. […]
Would you kindly list inhibition at 1 µM for each of these compounds?
Numbers only, in %.

Examples from the recorded data:
>  <Compound>
CN(C)C(=O)COc1ccc2c(c1)N(c1nc(-c3ccc4[nH]ccc4c3)nc3c1C[S+]([O-])C3)CC2 (stereo not shown)

>  <Reading>
88

$$$$
>  <Compound>
COc1ccc(-c2nc3c(c(N4C(=O)Cc5cc(CC(=O)O)ccc54)n2)CCC3)cc1Cl

>  <Reading>
61

$$$$
>  <Compound>
O=C(O)c1ccc2c(cnn2-c2nc(-c3ccc(Cl)s3)nc3c2CCC3)c1

>  <Reading>
80

$$$$
>  <Compound>
CN(C)C(=O)COc1ccc2c(c1)N(c1nc(-c3ccc(C#N)cc3)nc3c1C[S+]([O-])C3)CC2 (stereo not shown)

>  <Reading>
97

$$$$
>  <Compound>
O=C(COc1ccc2c(c1)N(c1nc(-c3ccc(Cl)s3)nc3c1CS(=O)(=O)C3)CC2)N1CCC1

>  <Reading>
104

$$$$

Items follow; give inhibition at 1 µM for each.
1. O=C(O)c1ccc2c(c1)ncn2-c1nc(-c2ccc(Cl)s2)nc2c1CCC2 (single isomer, unassigned)
2. O=C(COc1ccc2c(c1)N(c1nc(-c3ccc(F)s3)nc3c1C[S+]([O-])C3)CC2)N1CCCC1 (stereo not shown)
3. O=C(COc1ccc2c(c1)N(c1nc(-c3ccc(Cl)s3)nc3c1C[S+]([O-])C3)CC2)N1CCOCC1 (stereo not shown)
4. CN(C)C(=O)COc1ccc2c(c1)N(c1nc(-c3ccc(S(C)(=O)=O)cc3)nc3c1C[S+]([O-])C3)CC2 (stereo not shown)
5. CN(CC1CC1)C(=O)COc1ccc2c(c1)N(c1nc(-c3ccc(Cl)s3)nc3c1CCC3)CC2
6. CN(C)C(=O)COc1ccc2c(c1)N(c1nc(-c3ccc(F)s3)nc3c1CS(=O)(=O)C3)CC2
7. O=C(COc1ccc2c(c1)N(c1nc(-c3ccc(Cl)s3)nc3c1C[S+]([O-])C3)CC2)N1CCC1 (stereo not shown)

1: 35; 2: 116; 3: 93; 4: 104; 5: 6; 6: 127; 7: 40

State, in one line, measured inhibition at 1 µM of CNC(=O)COc1ccc2c(c1)N(c1nc(-c3ccc(Cl)s3)nc3c1CS(=O)(=O)C3)CC2 70

###

- Target: human PDE4B1 (Homo sapiens, UniProt Q07343)
- Construct: host or cells: Sf9 cells
- Assay: cAMP HTRF assay to determine the activity of hPDE4B1
- Type: biochemical
- Experimental parameters: Percentage inhibition of PDE4B at 1 μM test concentration
- Protocol: cAMP HTRF® Assay to Determine the Activity of hPDE4B1 The inhibiting effect of the compounds on the enzyme activity of human PDE4B1 was measured by the quantification of 5′-adenosine monophosphate (5′-AMP), which is formed from 3′,5′-cyclic adenosine monophosphate (cAMP). Human recombinant enzyme, expressed in Sf9 cells, and the HTRF (homogeneous time-resolved fluorescence) detection method were used in the assay. […]
Reported metric: inhibition at 1 µM

Items follow; give inhibition at 1 µM for each.
1. COc1cc(F)ccc1-c1nc2c(c(N3CCc4ccc(OCC(=O)N(C)C)cc43)n1)C[S+]([O-])C2 (stereo not shown)
2. COc1ccc(-c2nc3c(c(N4CCc5cc(CC(=O)O)ccc54)n2)CCCC3)cc1Cl
3. CN(C)C(=O)COc1ccc2c(c1)N(c1nc(-c3ccc4cnccc4c3)nc3c1C[S+]([O-])C3)CC2 (stereo not shown)
4. O=C(O)c1ccc2c(c1)CC(=O)N2c1nc(-c2ccc(Cl)s2)nc2c1CCC2

64%
63%
100%
61%

###

- Target: human PDE4B1 (Homo sapiens, UniProt Q07343)
- Construct: host or cells: Sf9 cells
- Assay: cAMP HTRF assay to determine the activity of hPDE4B1
- Assay type: biochemical
- Experimental parameters: Percentage inhibition of PDE4B at 1 μM test concentration
Would you kindly list inhibition at 1 µM for each of these molecules?
Answers are plain numbers, in %.

>  <Molecule>
CN(C)C(=O)COc1ccc2c(c1)N(c1nc(-c3cccc(C(F)(F)F)c3)nc3c1C[S+]([O-])C3)CC2 (stereo not drawn)

>  <Output unit>
%

>  <Reading>
120

$$$$
>  <Molecule>
COC(=O)Cc1ccc2c(c1)CCN2c1nc(-c2ccc(Cl)s2)nc2c1CS(=O)(=O)C2

>  <Output unit>
%

>  <Reading>
25

$$$$
>  <Molecule>
CN(C)C(=O)Cc1ccc2c(c1)CCN2c1nc(-c2ccc(Cl)s2)nc2c1CS(=O)(=O)C2

>  <Output unit>
%

>  <Reading>
32

$$$$
>  <Molecule>
COc1ccc(-c2nc3c(c(N4CCc5cc(CC(=O)O)ccc54)n2)CS(=O)(=O)C3)cc1Cl

>  <Output unit>
%

>  <Reading>
100

$$$$
>  <Molecule>
O=C(O)Cc1ccc2c(c1)CCN2c1nc(-c2ccc(Cl)s2)nc2c1CCCC2

>  <Output unit>
%

>  <Reading>
76

$$$$
>  <Molecule>
NC(=O)c1ccc(-c2nc3c(c(N4CCc5cc(CC(=O)O)ccc54)n2)CCC3)s1

>  <Output unit>
%

>  <Reading>
101

$$$$
>  <Molecule>
O=C(O)Cc1ccc2c(c1)CCN2c1nc(-c2ccc(F)s2)nc2c1CS(=O)(=O)C2

>  <Output unit>
%

>  <Reading>
103

$$$$
>  <Molecule>
CN1CCN(C(=O)COc2ccc3c(c2)N(c2nc(-c4ccc(Cl)s4)nc4c2C[S+]([O-])C4)CC3)CC1 (stereo not drawn)

>  <Output unit>
%

>  <Reading>
88

$$$$
>  <Molecule>
O=C(O)Cc1ccc2c(c1)CCN2c1nc(-c2ccc(F)s2)nc2c1C[S+]([O-])C2 (stereo not drawn)

>  <Output unit>
%

>  <Reading>
111

$$$$
>  <Molecule>
COc1ccc(-c2nc3c(c(N4CCc5ccc(OCC(=O)N(C)C)cc54)n2)CS(=O)(=O)C3)cc1F

>  <Output unit>
%

>  <Reading>
96

$$$$

Items follow; give inhibition at 1 µM for each.
1. O=C(O)Cc1ccc2c(c1)CCN2c1nc(-c2cc(Cl)cs2)nc2c1CCC2
2. CC(=O)Nc1ccc(-c2nc3c(c(N4CCc5ccc(OCC(=O)N(C)C)cc54)n2)C[S+]([O-])C3)cc1 (stereo not drawn)
3. COc1ccc(-c2nc3c(c(N4CCc5ccc(OCC(=O)N(C)C)cc54)n2)CS(=O)(=O)C3)cc1Cl
4. COc1ccc(-c2nc3c(c(N4CCc5ccc(OCC(=O)N(C)C)cc54)n2)C[S+]([O-])C3)cc1 (stereo not drawn)
5. CN(C)C(=O)COc1ccc2ccn(-c3nc(-c4ccc(Cl)s4)nc4c3C[S+]([O-])C4)c2c1 (stereo not drawn)
6. O=C(COc1ccc2c(c1)N(c1nc(-c3ccncc3)nc3c1C[S+]([O-])C3)CC2)N1CCCC1 (stereo not drawn)
7. COc1ccc(-c2nc3c(c(N4CCc5cc(CC(=O)O)ccc54)n2)CCC3)cc1Cl
8. COc1ccc(-c2nc3c(c(N4CCc5ccc(OCC(=O)N(C)C)cc54)n2)C[S+]([O-])C3)cc1F (stereo not drawn)

1: 92; 2: 98; 3: 100; 4: 105; 5: 116; 6: 94; 7: 91; 8: 98
